// inhibition at 10 µM lookup, one value per entry
Subject Of Test: UniProtKB P21397
Sequence (P21397 1-527): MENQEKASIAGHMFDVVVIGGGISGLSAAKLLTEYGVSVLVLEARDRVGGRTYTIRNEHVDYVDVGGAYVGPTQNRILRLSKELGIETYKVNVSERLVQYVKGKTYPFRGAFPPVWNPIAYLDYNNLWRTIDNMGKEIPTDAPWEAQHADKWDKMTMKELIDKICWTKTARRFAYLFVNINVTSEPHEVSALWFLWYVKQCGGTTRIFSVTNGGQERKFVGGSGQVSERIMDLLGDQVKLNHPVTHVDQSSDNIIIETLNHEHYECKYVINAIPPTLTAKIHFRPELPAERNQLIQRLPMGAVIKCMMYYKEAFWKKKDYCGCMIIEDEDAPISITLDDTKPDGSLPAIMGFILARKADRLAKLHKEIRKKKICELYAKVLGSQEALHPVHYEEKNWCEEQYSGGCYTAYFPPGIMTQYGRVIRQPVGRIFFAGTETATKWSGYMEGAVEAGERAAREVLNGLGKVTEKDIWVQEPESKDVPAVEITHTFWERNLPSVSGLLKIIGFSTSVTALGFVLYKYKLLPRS
Method Description: MAO-A (h) monoamine oxydase A, enzymatic assay
Condition Summary: read-out: Inhibition MAO-A (h) monoamine oxydase A, enzymatic assay
Only the number, expressed in %, is required.

{"columns": ["Compound", "inhibition at 10 µM [%]"],
 "data": [
  ["O=C(N1CC2(CC(CC3=C4C=CC=[N+]4[B-](F)(F)n4cccc43)C2)C1)N1CC2(CC(n3cnc(C4CC4)n3)C2)C1 [Compound 5]", 4.4],
  ["O=C1CO[C@H]2CCN(C(=O)N3CC4(CC(CC5=C6C=CC(c7ccc[nH]7)=[N+]6[B-](F)(F)n6cccc65)C4)C3)C[C@H]2N1 [Compound 4a]", 4.3],
  ["O=C(OC(C(F)(F)F)C(F)(F)F)N1CC2(CC(CC3=C4C=CC=[N+]4[B-](F)(F)n4cccc43)C2)C1 [Compound 2]", -1.3],
  ["O=C(O[C@H](CO)C(F)(F)F)N1CC2(CC(CC3=C4C=CC=[N+]4[B-](F)(F)n4cccc43)C2)C1 [Compound 1]", 22.6]
]}

Query: So what inhibition at 10 µM did O=C(OC(C(F)(F)F)C(F)(F)F)N1CC2(CC(CC3=C4C=CC(c5ccc[nH]5)=[N+]4[B-](F)(F)n4cccc43)C2)C1 [Compound 2a] get with UniProtKB P21397?
Response: -3

---

Each item that follows carries a reported IC50.
Subject Of Test: mMAGL (Mus musculus, UniProt O35678)
Sequence (O35678 1-303): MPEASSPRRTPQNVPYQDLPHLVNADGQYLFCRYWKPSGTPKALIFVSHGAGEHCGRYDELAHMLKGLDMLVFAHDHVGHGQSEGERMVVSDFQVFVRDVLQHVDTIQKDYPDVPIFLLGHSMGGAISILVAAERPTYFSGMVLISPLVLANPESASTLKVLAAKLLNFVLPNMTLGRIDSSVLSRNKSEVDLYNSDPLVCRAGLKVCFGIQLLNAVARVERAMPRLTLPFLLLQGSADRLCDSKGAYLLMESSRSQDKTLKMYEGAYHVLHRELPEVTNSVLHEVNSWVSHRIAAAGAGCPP
Method Description: Native MS (RapidFire) 2-AG substrate assay, purified mouse MAGL
Format: biochemical
Condition Summary: SI Table 1; read-out: IC50 against purified MAGL ± SEM, Mouse

{"columns": ["Compound", "Subject Of Test", "Assay Readout", "Endpoint Value"],
 "data": [
  ["O=C1NC2(CO1)CN(C(=O)N1CC3(CC(CC4=C5C=CC=[N+]5[B-](F)(F)n5cccc54)C3)C1)C2 [Compound S15]", "mMAGL (Mus musculus, UniProt O35678)", "IC50", "1.36 nM"],
  ["O=C1NC2(CO1)CN(C(=O)N1CC3(CCC(=CC4=C5C=CC=[N+]5[B-](F)(F)n5cccc54)CC3)C1)C2 [Compound S16]", "mMAGL (Mus musculus, UniProt O35678)", "IC50", "0.81 nM"],
  ["O=C1N[C@H](CCC(=O)N2CC3(CC(CC4=C5C=CC=[N+]5[B-](F)(F)n5cccc54)C3)C2)CO1 [Compound S17]", "mMAGL (Mus musculus, UniProt O35678)", "IC50", "0.84 nM"],
  ["O=C1NC2(CO1)CN(C(=O)N1CC3(CC(=CC4=C5C=CC=[N+]5[B-](F)(F)n5cccc54)C3)C1)C2 [Compound S14]", "mMAGL (Mus musculus, UniProt O35678)", "IC50", "12.4 nM"],
  ["O=C1CO[C@H]2CCN(C(=O)N3CC4(CC(CC5=C6C=CC(c7ccccc7)=[N+]6[B-](F)(F)n6cccc65)C4)C3)C[C@H]2N1 [Compound S22]", "mMAGL (Mus musculus, UniProt O35678)", "IC50", "0.37 nM"]
]}

Query: Form field: reported IC50 of O=C1CO[C@H]2CCN(C(=O)N3CC4(CC(=CC5=C6C=CC=[N+]6[B-](F)(F)n6cccc65)C4)C3)C[C@H]2N1 [Compound S13]
Response: 182 nM

Query: Note, next up: O=C1NC2(CO1)CN(C(=O)N1CCC3(CC1)CC(OC1=C4C=CC=[N+]4[B-](F)(F)n4cccc41)C3)C2 [Compound S8]
Response: 13.6 nM

Query: What do you have for O=C1CO[C@H]2CCN(C(=O)N3CC4(CCC(OC5=C6C=CC=[N+]6[B-](F)(F)n6cccc65)CC4)C3)C[C@H]2N1 [Compound S4] ?
Response: 7.06 nM

Query: Same for O=C1CO[C@H]2CCN(C(=O)N3CCC4(CC3)CC(OC3=C5C=CC=[N+]5[B-](F)(F)n5cccc53)C4)C[C@H]2N1 [Compound S6]
Response: 170 nM

---

Subject Of Test: A1 (h) (Homo sapiens, UniProt P30542)
Sequence (P30542 whole entry): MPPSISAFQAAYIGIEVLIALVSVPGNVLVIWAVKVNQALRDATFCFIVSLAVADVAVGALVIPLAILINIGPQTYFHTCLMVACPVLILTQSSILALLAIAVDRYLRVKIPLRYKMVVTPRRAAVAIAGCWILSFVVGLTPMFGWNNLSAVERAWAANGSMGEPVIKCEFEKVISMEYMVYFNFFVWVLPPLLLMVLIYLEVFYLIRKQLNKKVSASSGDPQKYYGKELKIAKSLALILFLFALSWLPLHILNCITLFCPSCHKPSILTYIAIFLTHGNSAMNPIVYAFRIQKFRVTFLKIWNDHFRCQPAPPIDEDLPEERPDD
Method Description: A1 (h) (agonist radioligand)
Condition Summary: read-out: Inhibition A1 (h) (agonist radioligand)
Assay Readout: inhibition at 10 µM (%)
Record the value in %, omitting the unit from your answer.

Some compounds with known inhibition at 10 µM results, for comparison:
{"columns": ["Substance Smiles", "Subject Of Test", "inhibition at 10 µM (%)"],
 "data": [
  ["O=C(N1CC2(CC(CC3=C4C=CC=[N+]4[B-](F)(F)n4cccc43)C2)C1)N1CC2(CC(n3cnc(C4CC4)n3)C2)C1", "A1 (h) (Homo sapiens, UniProt P30542)", 1.3],
  ["O=C(OC(C(F)(F)F)C(F)(F)F)N1CC2(CC(CC3=C4C=CC=[N+]4[B-](F)(F)n4cccc43)C2)C1", "A1 (h) (Homo sapiens, UniProt P30542)", 4.4],
  ["O=C(O[C@H](CO)C(F)(F)F)N1CC2(CC(CC3=C4C=CC=[N+]4[B-](F)(F)n4cccc43)C2)C1", "A1 (h) (Homo sapiens, UniProt P30542)", -3.9],
  ["O=C(OC(C(F)(F)F)C(F)(F)F)N1CC2(CC(CC3=C4C=CC(c5ccc[nH]5)=[N+]4[B-](F)(F)n4cccc43)C2)C1", "A1 (h) (Homo sapiens, UniProt P30542)", -1]
]}

Query: Look up inhibition at 10 µM for this compound: `O=C1CO[C@H]2CCN(C(=O)N3CC4(CC(CC5=C6C=CC(c7ccc[nH]7)=[N+]6[B-](F)(F)n6cccc65)C4)C3)C[C@H]2N1`
Response: 8.7

---

Subject Of Test: NanoLuc luciferase MAGL fusion protein (Homo sapiens, UniProt Q99685)
Sequence (Q99685 whole entry, the tested form may be a part): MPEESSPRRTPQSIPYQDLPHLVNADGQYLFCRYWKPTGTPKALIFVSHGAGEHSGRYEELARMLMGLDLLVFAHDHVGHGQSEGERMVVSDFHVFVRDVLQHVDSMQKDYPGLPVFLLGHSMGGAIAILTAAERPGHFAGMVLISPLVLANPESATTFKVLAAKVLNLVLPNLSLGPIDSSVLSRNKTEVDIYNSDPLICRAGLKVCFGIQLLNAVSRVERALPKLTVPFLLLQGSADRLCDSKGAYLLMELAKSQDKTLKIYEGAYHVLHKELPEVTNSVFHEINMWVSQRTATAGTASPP
Method Description: Cellular MAGL NanoBRET target engagement assay in live HEK293 cells
Type: cell-based
Condition Summary: live HEK293 cells; read-out: IC50 nanoBRET
Assay Readout: IC50 (nM)
Express it in nM; write the number only.

# annotated cases, reported IC50 shown
{"columns": ["Molecule", "Subject Of Test", "Endpoint Unit", "IC50"],
 "data": [
  ["O=C(OC(C(F)(F)F)C(F)(F)F)N1CC2(CC(CC3=C4C=CC=[N+]4[B-](F)(F)n4cccc43)C2)C1 [Compound 2]", "NanoLuc luciferase MAGL fusion protein (Homo sapiens, UniProt Q99685)", "nM", 720],
  ["O=C1CO[C@H]2CCN(C(=O)N3CC4(CC(CC5=C6C=CC=[N+]6[B-](F)(F)n6cccc65)C4)C3)C[C@H]2N1 [Compound 4]", "NanoLuc luciferase MAGL fusion protein (Homo sapiens, UniProt Q99685)", "nM", 196],
  ["O=C1NC2(CO1)CN(C(=O)N1CC3(CCC(CC4=C5C=CC=[N+]5[B-](F)(F)n5cccc54)CC3)C1)C2 [Compound 3]", "NanoLuc luciferase MAGL fusion protein (Homo sapiens, UniProt Q99685)", "nM", 557]
]}

Turning to the following molecule.
Query: Which IC50 is reported for this molecule? O=C(O[C@H](CO)C(F)(F)F)N1CC2(CC(CC3=C4C=CC=[N+]4[B-](F)(F)n4cccc43)C2)C1 [Compound 1]
Response: 276

Taken from paper PMC11951083.
